remaining at 4 h, 20 μM values, listed per item
- PROCEDURE TEXT: Serum stability test, human serum
- Type: in vitro ADME
- TEST PARAMETERS: both sexes, residual ratio: IS ratio at 4 hours relative to 0 hours, 37° C.
Starred links: 1 amine or outer side, 2 acyl side, 3 side chain; linkers in the order of their positions; H or OH if unused. Positions of bridges follow the written chain, without caps; N, C: chain ends. Non-standard residues stand in square brackets, D forms with d. Residues, ends and D or L forms follow the SMILES beside them. 2Nal = N[C@@H](Cc1ccc2ccccc2c1)C(=O)O; Gly(cPent) = N[C@H](C(=O)O)C1CCCC1; Agb = N=C(N)NCC[C@H](N)C(=O)O; hCys = N[C@@H](CCS)C(=O)O; CH2 = C([*:1])[*:2]
Give just the numeric value; % need not be written.

N=C(N)NCCC[C@@H]1NC(=O)CNC(=O)[C@@H]2CSSC[C@H](NC(=O)[C@H](Cc3c[nH]c4ccccc34)NC(=O)[C@H](CC(=O)O)NC1=O)C(=O)N[C@@H](CCCNC(=N)N)C(=O)N[C@@H](Cc1c[nH]c3ccccc13)C(=O)N[C@@H](C1CCCC1)C(=O)N[C@H](C(N)=O)CSCC(=O)N[C@@H](Cc1ccc3ccccc3c1)C(=O)N[C@@H](CCCNC(=N)N)C(=O)N2 [Peptide-128] ({CH2CO}-[2Nal]RCGRDWCRW[Gly(cPent)]C-NH2; disulfide 3-8; thioether N-12)
99
N=C(N)NCCC[C@@H]1NC(=O)CNC(=O)[C@@H]2CCSSCC[C@H](NC(=O)[C@H](Cc3c[nH]c4ccccc34)NC(=O)[C@H](CC(=O)O)NC1=O)C(=O)N[C@@H](CCCNC(=N)N)C(=O)N[C@@H](Cc1c[nH]c3ccccc13)C(=O)N[C@@H](C1CCCC1)C(=O)N[C@H](C(N)=O)CSCC(=O)N[C@@H](Cc1ccc3ccccc3c1)C(=O)N[C@@H](CCCNC(=N)N)C(=O)N2 [Peptide-11] ({CH2CO}-[2Nal]R[hCys]GRDW[hCys]RW[Gly(cPent)]C-NH2; disulfide 3-8; thioether N-12)
105
N=C(N)NCCC[C@@H]1NC(=O)CNC(=O)[C@@H]2CSSCC[C@H](NC(=O)[C@H](Cc3c[nH]c4ccccc34)NC(=O)[C@H](CC(=O)O)NC1=O)C(=O)N[C@@H](CCCNC(=N)N)C(=O)N[C@@H](Cc1c[nH]c3ccccc13)C(=O)N[C@@H](C1CCCC1)C(=O)N[C@H](C(N)=O)CSCC(=O)N[C@@H](Cc1ccc3ccccc3c1)C(=O)N[C@@H](CCCNC(=N)N)C(=O)N2 [Peptide-126] ({CH2CO}-[2Nal]RCGRDW[hCys]RW[Gly(cPent)]C-NH2; disulfide 3-8; thioether N-12)
99.6

[in] # lookup: remaining at 4 h, 20 μM of N=C(N)NCCC[C@@H]1NC(=O)CNC(=O)[C@@H]2CCSCSCC[C@H](NC(=O)[C@H](Cc3c[nH]c4ccccc34)NC(=O)[C@H](CC(=O)O)NC1=O)C(=O)N[C@@H](CCCNC(=N)N)C(=O)N[C@@H](Cc1c[nH]c3ccccc13)C(=O)N[C@@H](C1CCCC1)C(=O)N[C@H](C(N)=O)CSCC(=O)N[C@@H](Cc1ccc3ccccc3c1)C(=O)N[C@@H](CCCNC(=N)N)C(=O)N2 [Peptide-127] ({CH2CO}-[2Nal]R[hCys]GRDW[hCys]RW[Gly(cPent)]C-NH2; linker 3-8 via CH2; thioether N-12)
[out] 97.5

[in] # lookup: remaining at 4 h, 20 μM of N=C(N)NCCC[C@@H]1NC(=O)[C@H](Cc2ccc3ccccc3c2)NC(=O)CSC[C@@H](C(N)=O)NC(=O)[C@H](C2CCCC2)NC(=O)[C@H](Cc2c[nH]c3ccccc23)NC(=O)[C@H](CCCNC(=N)N)NC(=O)[C@@H]2CCSSCC[C@H](NC1=O)C(=O)NCC(=O)N[C@@H](CCNC(=N)N)C(=O)N[C@@H](CC(=O)O)C(=O)N[C@@H](Cc1c[nH]c3ccccc13)C(=O)N2 [Peptide-9] ({CH2CO}-[2Nal]R[hCys]G[Agb]DW[hCys]RW[Gly(cPent)]C-NH2; disulfide 3-8; thioether N-12)
[out] 118

[in] # lookup: remaining at 4 h, 20 μM of CC(C)[C@@H]1NC(=O)[C@H](Cc2c[nH]c3ccccc23)NC(=O)[C@H](CC(=O)O)NC(=O)[C@H](CCNC(=N)N)NC(=O)CNC(=O)[C@H](CO)NC(=O)[C@H](CCCNC(=N)N)NC(=O)[C@H](Cc2ccc3ccccc3c2)NC(=O)CSC[C@@H](C(N)=O)NC(=O)[C@H](C2CCCC2)NC(=O)[C@H](Cc2c[nH]c3ccccc23)NC(=O)[C@H](CCCNC(=N)N)NC1=O [Peptide-119]
[out] 88.5
